target-under-test: Kappa-type opioid receptor (Cavia porcellus, UniProt P41144)
Sequence (P41144 whole entry): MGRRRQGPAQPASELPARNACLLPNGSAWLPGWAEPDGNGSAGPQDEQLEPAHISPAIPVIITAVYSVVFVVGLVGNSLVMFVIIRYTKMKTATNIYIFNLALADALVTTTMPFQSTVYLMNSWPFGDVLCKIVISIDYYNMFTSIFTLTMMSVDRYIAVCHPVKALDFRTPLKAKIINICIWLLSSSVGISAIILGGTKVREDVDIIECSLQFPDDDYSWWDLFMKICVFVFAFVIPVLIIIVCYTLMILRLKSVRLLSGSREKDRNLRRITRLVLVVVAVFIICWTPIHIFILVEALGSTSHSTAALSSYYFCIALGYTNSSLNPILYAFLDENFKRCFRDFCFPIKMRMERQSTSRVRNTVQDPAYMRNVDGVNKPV
method: Displacement of [3H]U-69593 at opioid receptor kappa 1
quantity-kind: pKi
Give bare numbers, as −log10 of the molar value.

Solved cases (3 shown):
> print(dat)
                                   molecule  quantity.kind  observed.measurement
1  CCCN1CC[C@]23c4c5ccc(O)c4O[C@H]2c2[nH]c4ccccc4c2C[C@@]3(O)[C@H]1C5            pKi                  6.42
2  CC(C)=CCN1CC[C@]23c4c5ccc(O)c4O[C@H]2c2[nH]c4ccccc4c2C[C@@]3(O)[C@H]1C5            pKi                  5.49
3  CC(C)CCN1CC[C@]23c4c5ccc(O)c4O[C@H]2c2[nH]c4ccccc4c2C[C@@]3(O)[C@H]1C5            pKi                  6.17

# evaluate next
Given the molecule Cl.Oc1ccc2c3c1O[C@H]1c4[nH]c5ccccc5c4C[C@@]4(O)[C@@H](C2)N(CC2CC2)CC[C@]314 [NALTRINDOLE HYDROCHLORIDE] , what is its reported pKi?
7.52

====

target-under-test: Mu-type opioid receptor (Rattus norvegicus)
method: Antagonist activity of compound on agonist stimulated [35S]GTP-gamma-S binding on mu-opioid receptor
Type: functional
quantity-kind: pKi
Numbers only, as −log10 of the molar value.

Endpoint output: pKi of C/C=C/CN1CC[C@]23c4c5ccc(O)c4O[C@H]2c2[nH]c4ccccc4c2C[C@@]3(O)[C@H]1C5 . Value?
7.52

====

target-under-test: Delta-type opioid receptor (Mus musculus)
method: Displacement of [3H]DADLE at delta-opioid receptor
quantity-kind: pKi
Answers are plain numbers, as −log10 of the molar value.

> print(dat)
                    structure.smiles.string  observed.measurement
1  CCCCCN1CC[C@]23c4c5ccc(O)c4O[C@H]2c2[nH]c4ccccc4c2C[C@@]3(O)[C@H]1C5                  7.80
2  CCCCCCCN1CC[C@]23c4c5ccc(O)c4O[C@H]2c2[nH]c4ccccc4c2C[C@@]3(O)[C@H]1C5                  7.10
3  CC(C)N1CC[C@]23c4c5ccc(O)c4O[C@H]2c2[nH]c4ccccc4c2C[C@@]3(O)[C@H]1C5                  7.48
4  CCCCN1CC[C@]23c4c5ccc(O)c4O[C@H]2c2[nH]c4ccccc4c2C[C@@]3(O)[C@H]1C5                  8.08
5  CCCN1CC[C@]23c4c5ccc(O)c4O[C@H]2c2[nH]c4ccccc4c2C[C@@]3(O)[C@H]1C5                  8.70

Give pKi for each listed item.
1. CCN1CC[C@]23c4c5ccc(O)c4O[C@H]2c2[nH]c4ccccc4c2C[C@@]3(O)[C@H]1C5
2. CCCCCCN1CC[C@]23c4c5ccc(O)c4O[C@H]2c2[nH]c4ccccc4c2C[C@@]3(O)[C@H]1C5

1: 8.30; 2: 7.59

====

target-under-test: Kappa-type opioid receptor (Cavia porcellus)
method: Antagonist activity of compound on U50,488H stimulated [35S]GTP-gamma-S binding to opioid receptor kappa 1
Format: functional
quantity-kind: Ki (nM)
Answers are plain numbers, in nM.

> print(dat)
                                   compound  observed.measurement
1  C/C=C/CN1CC[C@]23c4c5ccc(O)c4O[C@H]2c2[nH]c4ccccc4c2C[C@@]3(O)[C@H]1C5                   118

May I ask what Ki has been recorded for Cl.Oc1ccc2c3c1O[C@H]1c4[nH]c5ccccc5c4C[C@@]4(O)[C@@H](C2)N(CC2CC2)CC[C@]314 [NALTRINDOLE HYDROCHLORIDE] ?
4.7

====

target-under-test: Delta-type opioid receptor (Mus musculus, UniProt P32300)
Sequence (P32300 whole entry): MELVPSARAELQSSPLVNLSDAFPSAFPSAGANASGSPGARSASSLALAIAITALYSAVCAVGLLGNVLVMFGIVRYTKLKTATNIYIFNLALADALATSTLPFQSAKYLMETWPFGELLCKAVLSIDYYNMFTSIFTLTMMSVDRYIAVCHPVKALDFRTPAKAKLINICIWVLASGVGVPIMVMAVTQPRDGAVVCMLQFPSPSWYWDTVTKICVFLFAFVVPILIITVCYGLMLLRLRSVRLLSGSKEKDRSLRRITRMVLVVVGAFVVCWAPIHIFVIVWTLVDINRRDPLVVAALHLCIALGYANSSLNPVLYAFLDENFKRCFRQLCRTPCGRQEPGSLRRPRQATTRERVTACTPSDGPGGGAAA
method: Antagonist activity of compound on agonist stimulated [35S]GTP-gamma-S binding on delta-opioid receptor
Assay type: functional
quantity-kind: Ki (nM)
Answers are plain numbers, in nM.

> print(dat)
                                   molecule  observed.measurement
1  Cl.Oc1ccc2c3c1O[C@H]1c4[nH]c5ccccc5c4C[C@@]4(O)[C@@H](C2)N(CC2CC2)CC[C@]314 [NALTRINDOLE HYDROCHLORIDE]                  0.03

For the record C/C=C/CN1CC[C@]23c4c5ccc(O)c4O[C@H]2c2[nH]c4ccccc4c2C[C@@]3(O)[C@H]1C5 , what value of Ki is listed for Delta-type opioid receptor (Mus musculus, UniProt P32300)?
0.68

====

target-under-test: Delta-type opioid receptor (Mus musculus)
method: Antagonist activity of compound on SNC 80 stimulated [35S]GTP-gamma-S binding to delta-opioid receptor
Type: functional
quantity-kind: pKi
Numbers only, as −log10 of the molar value.

For the molecule shown here, CCN1CC[C@]23c4c5ccc(O)c4O[C@H]2c2[nH]c4ccccc4c2C[C@@]3(O)[C@H]1C5 , give the reported pKi.
8.49

====

target-under-test: Kappa-type opioid receptor (Cavia porcellus)
method: Displacement of [3H]U-69593 at opioid receptor kappa 1
The threshold is 1000 nM. Values of Ki beneath it are tagged fulfilled; values meeting or exceeding it are tagged not fulfilled.

Sample answers from the record:
> print(dat)
                    structure.smiles.string  discrete.label
1  CCCCCN1CC[C@]23c4c5ccc(O)c4O[C@H]2c2[nH]c4ccccc4c2C[C@@]3(O)[C@H]1C5   not fulfilled
2  CC(C)CN1CC[C@]23c4c5ccc(O)c4O[C@H]2c2[nH]c4ccccc4c2C[C@@]3(O)[C@H]1C5       fulfilled
3  C/C=C/CN1CC[C@]23c4c5ccc(O)c4O[C@H]2c2[nH]c4ccccc4c2C[C@@]3(O)[C@H]1C5       fulfilled
4  CCCCCCN1CC[C@]23c4c5ccc(O)c4O[C@H]2c2[nH]c4ccccc4c2C[C@@]3(O)[C@H]1C5   not fulfilled
5  CCN1CC[C@]23c4c5ccc(O)c4O[C@H]2c2[nH]c4ccccc4c2C[C@@]3(O)[C@H]1C5   not fulfilled
6  CC(C)N1CC[C@]23c4c5ccc(O)c4O[C@H]2c2[nH]c4ccccc4c2C[C@@]3(O)[C@H]1C5   not fulfilled

Here's the next entry for you.
Quick check: does CCCCN1CC[C@]23c4c5ccc(O)c4O[C@H]2c2[nH]c4ccccc4c2C[C@@]3(O)[C@H]1C5 have Ki under 1000 nM?
fulfilled

====

target-under-test: Delta-type opioid receptor (Mus musculus)
method: Displacement of [3H]DADLE at delta-opioid receptor
quantity-kind: pKi
Give bare numbers, as −log10 of the molar value.

Example cases with answers are listed next.
> print(dat)
                                   compound  observed.measurement
1  CC(C)CCN1CC[C@]23c4c5ccc(O)c4O[C@H]2c2[nH]c4ccccc4c2C[C@@]3(O)[C@H]1C5                  8.32
2  Cl.Oc1ccc2c3c1O[C@H]1c4[nH]c5ccccc5c4C[C@@]4(O)[C@@H](C2)N(CC2CC2)CC[C@]314 [NALTRINDOLE HYDROCHLORIDE]                  9.66
3  CC(C)CN1CC[C@]23c4c5ccc(O)c4O[C@H]2c2[nH]c4ccccc4c2C[C@@]3(O)[C@H]1C5                  8.42
4  CC(C)=CCN1CC[C@]23c4c5ccc(O)c4O[C@H]2c2[nH]c4ccccc4c2C[C@@]3(O)[C@H]1C5                  7.60

Next compound, please.
I would be grateful if you could share the reported pKi for C/C=C/CN1CC[C@]23c4c5ccc(O)c4O[C@H]2c2[nH]c4ccccc4c2C[C@@]3(O)[C@H]1C5 .
8.13

====

target-under-test: Mu-type opioid receptor (Rattus norvegicus, UniProt P33535)
Sequence (P33535 whole entry): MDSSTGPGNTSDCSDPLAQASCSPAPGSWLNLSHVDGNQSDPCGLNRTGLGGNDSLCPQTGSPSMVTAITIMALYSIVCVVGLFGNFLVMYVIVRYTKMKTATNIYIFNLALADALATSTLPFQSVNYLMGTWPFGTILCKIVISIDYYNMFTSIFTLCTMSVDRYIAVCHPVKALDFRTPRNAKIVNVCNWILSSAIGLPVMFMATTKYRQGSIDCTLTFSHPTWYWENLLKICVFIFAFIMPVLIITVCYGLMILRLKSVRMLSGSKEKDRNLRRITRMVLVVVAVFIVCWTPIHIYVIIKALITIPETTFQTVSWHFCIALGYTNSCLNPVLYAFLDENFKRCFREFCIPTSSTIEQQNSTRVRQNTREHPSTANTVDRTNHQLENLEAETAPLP
method: Displacement of [3H]DAMGO at mu-opioid receptor
quantity-kind: pKi
Numbers only, as −log10 of the molar value.

> print(dat)
                                   compound  observed.measurement
1  CC(C)CCN1CC[C@]23c4c5ccc(O)c4O[C@H]2c2[nH]c4ccccc4c2C[C@@]3(O)[C@H]1C5                  5.89
2  CN1CC[C@]23c4c5ccc(O)c4O[C@H]2c2[nH]c4ccccc4c2C[C@@]3(O)[C@H]1C5 [OXYMORPHINDOLE]                  7.18
3  CC(C)=CCN1CC[C@]23c4c5ccc(O)c4O[C@H]2c2[nH]c4ccccc4c2C[C@@]3(O)[C@H]1C5                  5.55

Would you mind giving pKi for every compound in the list below?
1. CCCCCN1CC[C@]23c4c5ccc(O)c4O[C@H]2c2[nH]c4ccccc4c2C[C@@]3(O)[C@H]1C5
2. CCCCN1CC[C@]23c4c5ccc(O)c4O[C@H]2c2[nH]c4ccccc4c2C[C@@]3(O)[C@H]1C5
3. CCCCCCCN1CC[C@]23c4c5ccc(O)c4O[C@H]2c2[nH]c4ccccc4c2C[C@@]3(O)[C@H]1C5
4. CC(C)CN1CC[C@]23c4c5ccc(O)c4O[C@H]2c2[nH]c4ccccc4c2C[C@@]3(O)[C@H]1C5
5. CCCCCCN1CC[C@]23c4c5ccc(O)c4O[C@H]2c2[nH]c4ccccc4c2C[C@@]3(O)[C@H]1C5
6. CCN1CC[C@]23c4c5ccc(O)c4O[C@H]2c2[nH]c4ccccc4c2C[C@@]3(O)[C@H]1C5
7. C/C=C/CN1CC[C@]23c4c5ccc(O)c4O[C@H]2c2[nH]c4ccccc4c2C[C@@]3(O)[C@H]1C5

5.55
5.89
5.34
5.59
5.34
5.60
5.92
